# measuredOn: T1, Anti-CD28 Fab (SEQ ID NOs: 696, 697)
# T1 construct: In the phage ELISA the Fab was biotinylated and captured on neutravidin coated plates
# assayExplanation: phage binding ELISA; biotinylated anti-CD28 Fab on neutravidin plate, clonal phage supernatant, anti-M13 HRP detection
Where no end group is shown, it is not given here.
readoutName: Anti-CD28 Fab signal (phage binding ELISA)

1. YCDGHSEVYMAKCL (cysteine pairing not given here; also: fused to phage pIII, Tested as clonal phage supernatant; not shown: fused to the pIII filament protein of the bacteriophage) [Phage-921 (Peptide-87 library clone, SEQ ID NO: 1237)]: 1.66
2. YCDGHGPQYIQKCL (cysteine pairing not given here; also: displayed fused to phage pIII protein, fusion end and linker not given here, Tested as clonal phage supernatant; not shown: fused to the pIII filament protein of the bacteriophage) [Phage-929 (Peptide-87 library clone, SEQ ID NO: 1245)]: 1.64
3. YCDGHDVEYMAKCL (cysteine pairing not given here; also: fused to phage pIII, Tested as clonal phage supernatant; not shown: fused to the pIII filament protein of the bacteriophage) [Phage-920 (Peptide-87 library clone, SEQ ID NO: 1236)]: 1.66
